Each entry below carries its recorded IC50.
- testedTarget: CDK4 (Homo sapiens, UniProt P11802)
- Construct: purchased Carna Company
- Sequence (P11802 whole entry): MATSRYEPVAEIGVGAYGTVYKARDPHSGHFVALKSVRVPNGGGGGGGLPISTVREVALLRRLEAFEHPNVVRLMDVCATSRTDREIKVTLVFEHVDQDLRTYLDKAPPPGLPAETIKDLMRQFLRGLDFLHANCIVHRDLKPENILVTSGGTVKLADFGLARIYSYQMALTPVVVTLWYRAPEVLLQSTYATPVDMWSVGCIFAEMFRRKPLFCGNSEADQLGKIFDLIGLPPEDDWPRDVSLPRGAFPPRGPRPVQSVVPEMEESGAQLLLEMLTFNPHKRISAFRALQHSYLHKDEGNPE
- Sequence (P30281 whole entry partner): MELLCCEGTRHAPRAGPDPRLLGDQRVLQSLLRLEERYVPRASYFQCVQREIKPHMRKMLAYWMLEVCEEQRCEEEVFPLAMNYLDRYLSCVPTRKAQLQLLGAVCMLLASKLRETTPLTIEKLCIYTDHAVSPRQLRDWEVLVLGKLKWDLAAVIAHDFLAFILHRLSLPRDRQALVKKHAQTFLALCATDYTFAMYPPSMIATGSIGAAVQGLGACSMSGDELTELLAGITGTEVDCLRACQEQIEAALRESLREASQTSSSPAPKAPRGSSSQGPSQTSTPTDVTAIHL
- method: CDK enzymology experiment in vitro, capillary mobility shift assay (MSA)
- Assay type: biochemical
- cond: read-out: CDK4 (nM) inhibitory IC50

Worked cases, answers included:
[
  {
    "compound": "Cn1cc(S(=O)(=O)N2CCC(Nc3ncc(C#N)c(NC(C)(C)C)n3)CC2)cn1 [Compound 42]",
    "result": "10 to 50 nM"
  },
  {
    "compound": "CN(C)CCN(c1nc(NC2CCN(S(=O)(=O)c3cnn(C)c3)CC2)ncc1C#N)C1CCCC1 [Compound 148]",
    "result": "100 to 1000 nM"
  },
  {
    "compound": "O=S(=O)(c1ccc(N2CCNCC2)c(F)c1)N1CCC(Nc2ncc(C(F)(F)F)c(O[C@H]3CCOC3)n2)CC1 [Compound 172]",
    "result": "0.5 to 2.5 nM"
  },
  {
    "compound": "O=S(=O)(c1ccc(C2=CCNCC2)cc1)N1CCC(Nc2ncc(C(F)(F)F)c(N[C@H]3CCOC3)n2)CC1 [Compound 93]",
    "result": "2.5 to 10 nM"
  },
  {
    "compound": "C[C@@H]1CN(c2ccc(S(=O)(=O)N3CCC(Nc4ncc(C(F)(F)F)c(O[C@H]5CCOC5)n4)CC3)cn2)C[C@@H](C)N1 [Compound 207]",
    "result": "2.5 to 10 nM"
  }
]

Query: Value wanted: IC50 (CDK4 (Homo sapiens, UniProt P11802)) of entry O=S(=O)(c1ccc(N2CC3CNCC3C2)cc1)N1CCC(Nc2ncc(C(F)(F)F)c(O[C@H]3CCOC3)n2)CC1 (stereo partly shown) [Compound 191]
Result: 0.5 to 2.5 nM

Query: Value wanted: IC50 (CDK4 (Homo sapiens, UniProt P11802)) of entry CN1CC[C@H](Nc2nc(NC3CCN(S(=O)(=O)c4cnn(C)c4)CC3)ncc2C#N)C1 [Compound 72]
Result: 10 to 50 nM

* * *

- testedTarget: CDK6 (Homo sapiens, UniProt Q00534)
- Construct: purchased Carna Company
- Sequence (Q00534 whole entry): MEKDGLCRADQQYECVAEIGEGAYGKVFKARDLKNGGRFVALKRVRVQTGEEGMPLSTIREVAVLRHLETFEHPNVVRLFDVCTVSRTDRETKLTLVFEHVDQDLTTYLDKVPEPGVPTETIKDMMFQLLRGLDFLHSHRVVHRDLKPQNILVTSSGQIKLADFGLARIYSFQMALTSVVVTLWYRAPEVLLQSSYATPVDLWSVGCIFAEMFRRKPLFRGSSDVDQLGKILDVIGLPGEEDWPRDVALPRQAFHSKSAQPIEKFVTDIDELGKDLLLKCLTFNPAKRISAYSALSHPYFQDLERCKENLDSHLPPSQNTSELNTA
- Sequence (P30281 whole entry partner): as the sequence (P30281 whole entry partner) above
- method: CDK enzymology experiment in vitro, capillary mobility shift assay (MSA)
- Assay type: biochemical
- cond: read-out: CDK6 (nM) inhibitory IC50
measurementLabel: IC50

Worked cases, answers included:
[
  {
    "compound": "O=S(=O)(c1ccc(C2CCCNC2)cc1)N1CCC(Nc2ncc(C(F)(F)F)c(O[C@H]3CCOC3)n2)CC1 (stereo partly shown)",
    "result": "0.5 to 2.5 nM"
  },
  {
    "compound": "CC1(O)CCN(c2ccc(S(=O)(=O)N3CCC(Nc4ncc(C(F)(F)F)c(O[C@H]5CCOC5)n4)CC3)cc2)CC1",
    "result": "0.5 to 2.5 nM"
  },
  {
    "compound": "Cn1cc(S(=O)(=O)N2CCC(Nc3ncc(C#N)c(N[C@H]4CCOC4)n3)CC2)cn1",
    "result": "50 to 100 nM"
  }
]

API: the following record is the query input.
Query: Value wanted: IC50 (CDK6 (Homo sapiens, UniProt Q00534)) of entry Cc1cc(S(=O)(=O)N2CCC(Nc3ncc(C(F)(F)F)c(O[C@H]4CCOC4)n3)CC2)ccc1C1=CCCNC1
Result: 0.5 to 2.5 nM
